- Tested on: 885724-159-R-J1-PDC KRAS PDC multicell spheroid viability;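 also: spheroids exposed to agents for 7 days before readout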
- experiment_description: Anticancer human tumor 885724-159-R-J1-PDC patient-derived pancreatic adenocarcinoma cell line growth inhibition [KRAS2]
- test_parameters: curve of first compound; second compound 1 µM
Exercise: for every item that follows, state its recorded IC50.
Numbers only, in µM.

CCNC(=O)CC1N=C(c2ccc(Cl)cc2)c2cc(OC)ccc2-n2c(C)nnc21 (stereo not given) + COc1cc2nc(C)nc(NC(C)c3cc(N)cc(C(F)(F)F)c3)c2cc1OC1CCOC1 : 2.49

Hey, 885724-159-R-J1-PDC KRAS PDC multicell spheroid viability data for COc1cc2nccc(Oc3ccc(NC(=O)C4(C(=O)Nc5ccc(F)cc5)CC4)cc3)c2cc1OC + COc1cc2nc(C)nc(NC(C)c3cc(N)cc(C(F)(F)F)c3)c2cc1OC1CCOC1 : IC50 came out at 4.63
